PROCEDURE_SUMMARY: Tissue distribution after single oral administration in rats
Assay type: in vivo, rat
MEASUREMENT_SETUP: rat; joint, 100 mg/kg PO, male Wistar rats, Estimated Value
PROPERTY_NAME: Tmax (h)
Use h as the unit, but write only the number.

Task item: Identify Tmax associated with the compound COc1cc(Nc2ncnc(Nc3cc4c(cn3)NC(=O)C(C)(C)O4)n2)cc(OC)c1OC
Reply: 8

---

PROCEDURE_SUMMARY: Pharmacokinetics after single oral administration to rats
Format: in vivo, rat
MEASUREMENT_SETUP: male, Wistar, rat, plasma, po, 100 mg/kg, Table S6, 100 mg/kg PO, male Wistar rats, plasma, mean of Rat#1-6; read-out: Tmax, Mean
PROPERTY_NAME: Tmax (h)
Use h as the unit, but write only the number.

Task item: Identify Tmax associated with the molecule COc1cc(Nc2ncnc(Nc3cc4c(cn3)NC(=O)C(C)(C)O4)n2)cc(OC)c1OC
Reply: 1.5

---

PROCEDURE_SUMMARY: Tissue distribution after single oral administration in rats
Assay type: in vivo, rat
MEASUREMENT_SETUP: rat; bone, 100 mg/kg PO, male Wistar rats, Estimated Value; read-out: AUC24
PROPERTY_NAME: AUC (ng·h/mL)
Use ng·h/mL as the unit, but write only the number.

Task item: Identify AUC associated with the compound COc1cc(Nc2ncnc(Nc3cc4c(cn3)NC(=O)C(C)(C)O4)n2)cc(OC)c1OC
Reply: 9680

---

PROCEDURE_SUMMARY: Tissue distribution after single oral administration in rats
Type: in vivo, rat
MEASUREMENT_SETUP: male, Wistar, rat, liver, po, 100 mg/kg, liver, 100 mg/kg PO, male Wistar rats, 2 h, individual animals; read-out: Liver concentration
PROPERTY_NAME: concentration at 2 h (ng/mL)
Use ng/mL as the unit, but write only the number.

Task item: Identify concentration at 2 h associated with the compound COc1cc(Nc2ncnc(Nc3cc4c(cn3)NC(=O)C(C)(C)O4)n2)cc(OC)c1OC
Reply: 4450

---

PROCEDURE_SUMMARY: Tissue distribution after single oral administration in rats
Assay type: in vivo, rat
MEASUREMENT_SETUP: male, Wistar, rat, spleen, po, 100 mg/kg, spleen, 100 mg/kg PO, male Wistar rats, 2 h, mean; read-out: Spleen concentration, Mean
PROPERTY_NAME: concentration at 2 h

Task item: Identify concentration at 2 h associated with the molecule COc1cc(Nc2ncnc(Nc3cc4c(cn3)NC(=O)C(C)(C)O4)n2)cc(OC)c1OC
Reply: 1910 ng/mL

---

PROCEDURE_SUMMARY: Pharmacokinetics after single oral administration to rabbits
Assay type: in vivo, rabbit
MEASUREMENT_SETUP: male, New Zealand, rabbit, plasma, single oral 50 mg/kg
Description: Experiments were performed at ChemPartner, Shanghai, China and approved by Institutional Ethics Committee (IEC) of ChemPartner. Male Wistar 10–12 weeks old rats with body weights of 185–220 g and male New Zealand rabbits with body weights of 2.0–2.3 kg were purchased from Shanghai SLAC Laboratory Animal Co., Ltd. MT-SYK-03 was administered to the three groups of rats (six rats per group) via oral gavage at 10 mL/kg concentration, and in rabbits 5 mL/kg concentration. […]
PROPERTY_NAME: AUC(0-inf) (µg·h/mL)
Use µg·h/mL as the unit, but write only the number.

Task item: Identify AUC(0-inf) associated with the compound COc1cc(Nc2ncnc(Nc3cc4c(cn3)NC(=O)C(C)(C)O4)n2)cc(OC)c1OC [MT-SYK-03]
Reply: 121

---

PROCEDURE_SUMMARY: Pharmacokinetics after single oral administration to rats
Format: in vivo, rat
MEASUREMENT_SETUP: male, Wistar, rat, plasma, po, 100 mg/kg, Table S6, 100 mg/kg PO, male Wistar rats, plasma, mean of Rat#1-6; read-out: AUCINF, Mean
PROPERTY_NAME: AUC(0-inf) (ng·h/mL)
Use ng·h/mL as the unit, but write only the number.

Task item: Identify AUC(0-inf) associated with the compound COc1cc(Nc2ncnc(Nc3cc4c(cn3)NC(=O)C(C)(C)O4)n2)cc(OC)c1OC [MT-SYK-03]
Reply: 2420

---

PROCEDURE_SUMMARY: Pharmacokinetics after single oral administration to rats
Type: in vivo, rat
MEASUREMENT_SETUP: male, Wistar, rat, plasma, po, 100 mg/kg, Table S6, 100 mg/kg PO, male Wistar rats, plasma, individual Rat#1-6; read-out: Tmax
PROPERTY_NAME: Tmax (h)
Use h as the unit, but write only the number.

Task item: Identify Tmax associated with the compound COc1cc(Nc2ncnc(Nc3cc4c(cn3)NC(=O)C(C)(C)O4)n2)cc(OC)c1OC [MT-SYK-03]
Reply: 2

---

PROCEDURE_SUMMARY: Tissue distribution after single oral administration in rats
Format: in vivo, rat
MEASUREMENT_SETUP: rat; bone, 100 mg/kg PO, male Wistar rats, Estimated Value
PROPERTY_NAME: Tmax (h)
Use h as the unit, but write only the number.

Task item: Identify Tmax associated with the compound COc1cc(Nc2ncnc(Nc3cc4c(cn3)NC(=O)C(C)(C)O4)n2)cc(OC)c1OC
Reply: 8

---

TARGET: FGR (Homo sapiens, UniProt P09769)
Sequence (P09769 whole entry): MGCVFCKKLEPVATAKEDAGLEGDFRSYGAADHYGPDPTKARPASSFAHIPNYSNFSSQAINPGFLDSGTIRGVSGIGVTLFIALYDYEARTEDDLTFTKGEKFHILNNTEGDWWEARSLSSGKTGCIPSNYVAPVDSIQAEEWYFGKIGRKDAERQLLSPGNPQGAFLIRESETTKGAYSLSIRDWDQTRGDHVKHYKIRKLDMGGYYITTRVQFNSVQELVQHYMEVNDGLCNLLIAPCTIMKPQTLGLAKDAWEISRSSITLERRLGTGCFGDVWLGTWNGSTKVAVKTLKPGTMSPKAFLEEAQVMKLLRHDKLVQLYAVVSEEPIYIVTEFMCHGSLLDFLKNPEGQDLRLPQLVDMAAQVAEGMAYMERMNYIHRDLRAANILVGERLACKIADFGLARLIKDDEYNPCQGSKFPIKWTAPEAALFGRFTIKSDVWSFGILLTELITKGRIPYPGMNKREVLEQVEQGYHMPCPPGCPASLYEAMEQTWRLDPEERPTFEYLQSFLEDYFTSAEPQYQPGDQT
PROPERTY_NAME: IC50
In your response, put the unit directly after the numeric value.

Task item: Identify IC50 associated with the molecule COc1cc(Nc2ncnc(Nc3cc4c(cn3)NC(=O)C(C)(C)O4)n2)cc(OC)c1OC
Reply: 9 nM

---

PROCEDURE_SUMMARY: Tissue distribution after single oral administration in rats
Format: in vivo, rat
MEASUREMENT_SETUP: rat; liver, 100 mg/kg PO, male Wistar rats, Estimated Value; read-out: AUC24
PROPERTY_NAME: AUC (ng·h/mL)
Use ng·h/mL as the unit, but write only the number.

Task item: Identify AUC associated with the molecule COc1cc(Nc2ncnc(Nc3cc4c(cn3)NC(=O)C(C)(C)O4)n2)cc(OC)c1OC [MT-SYK-03]
Reply: 32100

---

PROCEDURE_SUMMARY: Pharmacokinetics after single oral administration to rats
Format: in vivo, rat
MEASUREMENT_SETUP: male, Wistar, rat, plasma, po, 100 mg/kg, rats, single oral 100 mg/kg; read-out: Tmax
PROPERTY_NAME: Tmax
In your response, put the unit directly after the numeric value.

Task item: Identify Tmax associated with the compound COc1cc(Nc2ncnc(Nc3cc4c(cn3)NC(=O)C(C)(C)O4)n2)cc(OC)c1OC [MT-SYK-03]
Reply: 1 h

---

PROCEDURE_SUMMARY: Pharmacokinetics after single oral administration to rats
Format: in vivo, rat
MEASUREMENT_SETUP: male, Wistar, rat, plasma, po, 200 mg/kg, Table S8, 200 mg/kg PO, male Wistar rats, plasma, individual Rat#13-18; read-out: AUCINF
PROPERTY_NAME: AUC(0-inf) (ng·h/mL)
Use ng·h/mL as the unit, but write only the number.

Task item: Identify AUC(0-inf) associated with the molecule COc1cc(Nc2ncnc(Nc3cc4c(cn3)NC(=O)C(C)(C)O4)n2)cc(OC)c1OC
Reply: 7500

---

PROCEDURE_SUMMARY: Tissue distribution after single oral administration in rats
Assay type: in vivo, rat
MEASUREMENT_SETUP: rat; muscle, 100 mg/kg PO, male Wistar rats, Estimated Value; read-out: AUC24
Experimental: Experiments were performed at ChemPartner, Shanghai, China and approved by Institutional Ethics Committee (IEC) of ChemPartner. Male Wistar 10–12 weeks old rats with body weights of 185–220 g and male New Zealand rabbits with body weights of 2.0–2.3 kg were purchased from Shanghai SLAC Laboratory Animal Co., Ltd. MT-SYK-03 was administered to the three groups of rats (six rats per group) via oral gavage at 10 mL/kg concentration, and in rabbits 5 mL/kg concentration. […]
PROPERTY_NAME: AUC (ng·h/mL)
Use ng·h/mL as the unit, but write only the number.

Task item: Identify AUC associated with the compound COc1cc(Nc2ncnc(Nc3cc4c(cn3)NC(=O)C(C)(C)O4)n2)cc(OC)c1OC
Reply: 3120

---

PROCEDURE_SUMMARY: Tissue distribution after single oral administration in rats
Assay type: in vivo, rat
MEASUREMENT_SETUP: rat; muscle, 100 mg/kg PO, male Wistar rats, Estimated Value
PROPERTY_NAME: Cmax (ng/mL)
Use ng/mL as the unit, but write only the number.

Task item: Identify Cmax associated with the molecule COc1cc(Nc2ncnc(Nc3cc4c(cn3)NC(=O)C(C)(C)O4)n2)cc(OC)c1OC
Reply: 436

---

PROCEDURE_SUMMARY: Tissue distribution after single oral administration in rats
Type: in vivo, rat
MEASUREMENT_SETUP: rat; prostate, 100 mg/kg PO, male Wistar rats, Estimated Value
PROPERTY_NAME: Tmax (h)
Use h as the unit, but write only the number.

Task item: Identify Tmax associated with the compound COc1cc(Nc2ncnc(Nc3cc4c(cn3)NC(=O)C(C)(C)O4)n2)cc(OC)c1OC
Reply: 2
